Tested on: BXPC-3 (pancreas)
PROCEDURE_SUMMARY: Human cancer cell growth inhibition, sulforhodamine B assay, BXPC-3
Type: cell-based
EXPERIMENTAL_SETUP: BXPC-3, 48 h, read-out: Growth Inhibition of Human Cancer Cell Lines (GI50), BXPC-3
Exercise: for every item that follows, state its recorded GI50.
Give bare numbers, in µg/mL.

Reference set, count: 3
>>> measured_result("COc1cc(C2C3=C(COC3=O)N(CCc3ccc(F)cc3)c3cc4c(cc32)OCO4)cc(OC)c1O (stereo not shown)")
1.4
>>> measured_result("COc1cc(C2C3=C(COC3=O)N(C)c3cc4c(cc32)OCO4)cc(OC)c1OC (stereo not shown)")
0.049
>>> measured_result("COc1cc(C2C3=C(COC3=O)Nc3cc(OC)c(OC)c(OC)c32)cc(OC)c1OC (stereo not shown)")
5.6

For each entry beneath this line, provide reported GI50.
1. COc1cc(C2C3=C(COC3=O)N(CCCn3ccnc3)c3cc4c(cc32)OCO4)cc(OC)c1OC (stereo not shown)
2. COc1cc(C2C3=C(COC3=O)N(CCc3ccc([N+](=O)[O-])cc3)c3cc4c(cc32)OCO4)cc(OC)c1OC (stereo not shown)
3. COc1cc(C2C3=C(COC3=O)N(CCc3ccccn3)c3cc4c(cc32)OCO4)cc(OC)c1OC (stereo not shown)
4. COc1cc(C2C3=C(COC3=O)N(CCc3ccc(F)cc3)c3cc4c(cc32)OCO4)cc(OC)c1OC (stereo not shown)

1. 2.9
2. 0.39
3. 0.38
4. 0.9

----------
Tested on: BXPC-3 (pancreas)
PROCEDURE_SUMMARY: Human cancer cell growth inhibition, sulforhodamine B assay, BXPC-3
Assay type: cell-based
EXPERIMENTAL_SETUP: BXPC-3, 48 h, read-out: Growth Inhibition of Human Cancer Cell Lines (GI50), BXPC-3
Field 'label' (enum: 1 / 0). Set to 1 when GI50 is strictly under 0.5 µg/mL; else 0.

Use the examples below as a reference point.
>>> assigned_category("COc1cc(C2C3=C(COC3=O)Nc3cc4c(cc32)OCO4)cc(OC)c1O (centres unmarked)")
1
>>> assigned_category("COc1cc(C2C3=C(COC3=O)N(C3CCCC3)c3cc4c(cc32)OCO4)cc(OC)c1O (centres unmarked)")
0

Determine whether this compound shows GI50 lower than 0.5 µg/mL (ties excluded): COc1cc(C2C3=C(COC3=O)N(CCN3CCOCC3)c3cc4c(cc32)OCO4)cc(OC)c1OC (centres unmarked)
0

Determine whether this compound shows GI50 lower than 0.5 µg/mL (ties excluded): COc1cc(C2C3=C(COC3=O)N(C3CCCC3)c3cc4c(cc32)OCO4)cc(OC)c1OC (centres unmarked)
1

Determine whether this compound shows GI50 lower than 0.5 µg/mL (ties excluded): COc1cc(C2C3=C(COC3=O)N(CCc3ccc(Cl)cc3)c3cc4c(cc32)OCO4)cc(OC)c1OC (centres unmarked)
0

----------
ATTRIBUTE_MEASURED: melting point

For each entry beneath this line, provide reported melting point.
1. COc1cc(C2C3=C(COC3=O)Nc3cc4c(cc32)OCO4)cc(OC)c1OC (centres unmarked) [Compound 15e]
2. COc1cc(C2C3=C(COC3=O)N(CCCn3ccnc3)c3cc4c(cc32)OCO4)cc(OC)c1OC (centres unmarked) [Compound 28]
3. COc1cc(C2C3=C(COC3=O)N(CCc3ccc([N+](=O)[O-])cc3)c3cc4c(cc32)OCO4)cc(OC)c1OC (centres unmarked) [Compound 27]
4. COc1cc(C2C3=C(COC3=O)Nc3cc(OC)c(OC)c(OC)c32)cc(Br)c1OC (centres unmarked) [Compound 15a]

273 to 275 °C
206 °C (dec.)
188 to 190 °C
175 to 177 °C

For each entry beneath this line, provide reported melting point.
1. O=C1OCC2=C1C(c1cccc3c1OCO3)c1cc3c(cc1N2)OCO3 (centres unmarked) [Compound 15d]
2. COc1cc(C2C3=C(COC3=O)N(CCc3ccc(F)cc3)c3cc4c(cc32)OCO4)cc(OC)c1OC (centres unmarked) [Compound 25]
3. COc1cc(C2C3=C(COC3=O)N(CCCO)c3cc4c(cc32)OCO4)cc(OC)c1OC (centres unmarked) [Compound 14]
4. COc1cc(C2C3=C(COC3=O)N(CCN3CCOCC3)c3cc4c(cc32)OCO4)cc(OC)c1OC (centres unmarked) [Compound 22]
5. COc1cc(C2C3=C(COC3=O)N(C3CCCC3)c3cc4c(cc32)OCO4)cc(OC)c1OC (centres unmarked) [Compound 18]

1: 324 to 327 °C; 2: 174 to 177 °C; 3: 269 to 272 °C (dec.); 4: 186 to 189 °C; 5: 221 to 223 °C

For each entry beneath this line, provide reported melting point.
1. COc1cc(C2C3=C(COC3=O)N(CCc3ccc(Cl)cc3)c3cc4c(cc32)OCO4)cc(OC)c1OC (centres unmarked) [Compound 26]
2. COc1ccc(C2C3=C(COC3=O)Nc3cc(OC)c(OC)c(OC)c32)cc1O[Si](C)(C)C(C)(C)C (centres unmarked)
3. COc1cc(C2C3=C(COC3=O)N(C3CCCCC3)c3cc4c(cc32)OCO4)cc(OC)c1OC (centres unmarked) [Compound 19]
4. COc1cc(C2C3=C(COC3=O)N(Cc3ccc(F)cc3)c3cc4c(cc32)OCO4)cc(OC)c1OC (centres unmarked) [Compound 23]
5. COc1cc(C2C3=C(COC3=O)N(CCN3CCCCC3)c3cc4c(cc32)OCO4)cc(OC)c1OC (centres unmarked) [Compound 21]

["170 to 173 °C", "169 to 171 °C", "235 to 237 °C", "246 to 247 °C", "170 °C (dec.)"]

For each entry beneath this line, provide reported melting point.
1. COc1cc(C2C3=C(COC3=O)N(C3CCC3)c3cc4c(cc32)OCO4)cc(OC)c1OC (centres unmarked) [Compound 17]
2. COc1cc(C2C3=C(COC3=O)Nc3cc(OC)c(OC)c(OC)c32)cc(OC)c1OC (centres unmarked) [Compound 15]
3. COc1cc(C2C3=C(COC3=O)N(CCc3ccccn3)c3cc4c(cc32)OCO4)cc(OC)c1OC (centres unmarked) [Compound 24]

["224 to 226 °C", "137 to 139 °C", "239 to 241 °C"]

----------
System: BXPC-3 (pancreas)
PROCEDURE_SUMMARY: Human cancer cell growth inhibition, sulforhodamine B assay, BXPC-3
Type: cell-based
EXPERIMENTAL_SETUP: BXPC-3, 48 h, read-out: Growth Inhibition of Human Cancer Cell Lines (GI50), BXPC-3
Exercise: for every item that follows, state its recorded GI50.
One number for each entry, in µg/mL.

Reference set, count: 7
>>> measured_result("COc1cc(C2C3=C(COC3=O)N(CCCO)c3cc4c(cc32)OCO4)cc(OC)c1OC (centres unmarked)")
0.48
>>> measured_result("COc1cc(C2C3=C(COC3=O)N(Cc3ccc(F)cc3)c3cc4c(cc32)OCO4)cc(OC)c1OC (centres unmarked)")
0.046
>>> measured_result("COc1cc(C2C3=C(COC3=O)N(Cc3ccco3)c3cc4c(cc32)OCO4)cc(OC)c1O (centres unmarked)")
1
>>> measured_result("COc1ccc(C2C3=C(COC3=O)Nc3cc(OC)c(OC)c(OC)c32)cc1O (centres unmarked) [Compound 15c]")
6.5
>>> measured_result("O=C1OCC2=C1C(c1cccc3c1OCO3)c1cc3c(cc1N2)OCO3 (centres unmarked) [Compound 15d]")
0.065
>>> measured_result("COc1cc(C2C3=C(COC3=O)Nc3cc(OC)c(OC)c(OC)c32)cc(Br)c1OC (centres unmarked) [Compound 15a]")
0.56
>>> measured_result("COc1cc(C2C3=C(COC3=O)N(C3CCC3)c3cc4c(cc32)OCO4)cc(OC)c1OC (centres unmarked)")
0.04

Next, consider the following compound.
State the recorded GI50 for this entry: COc1cc(C2C3=C(COC3=O)N(C3CCCCC3)c3cc4c(cc32)OCO4)cc(OC)c1OC (centres unmarked)
0.17

Sourced from patent US11098052B2
